assay: Pharmacokinetics in mouse plasma; assay type: in vivo; details: female, BALB/c, ip, 20 mg/kg

# MOLECULE, OUTPUT UNIT, k el
measured = [
    ("CCCCCCCc1cc(O)c2ccccc2[n+]1[O-] [HQNO, 2-Heptyl-4-hydroxyquinoline N-oxide]", "s⁻¹", 0.000135),
]

---

assay: Pharmacokinetics in mouse plasma; type: in vivo; conditions: female, BALB/c, ip, 20 mg/kg

# MOLECULE, OUTPUT UNIT, AUC(0-t)
rows = [
    ("CCCCCCCc1cc(O)c2ccccc2[n+]1[O-] [HQNO, 2-Heptyl-4-hydroxyquinoline N-oxide]", "ng·h/mL", 3860),
]
